- System: Fibroblast
- measurement_protocol: Multiplex assay against human fibroblast
- Type: toxicity, cell-based
- test_conditions: 48 h, 1 µM, compound concentration 1 uM, replicate 1
I'd be grateful if you could share measured Population Apoptotic (%) for these entries.
Answers are plain numbers, in %.

Consider the reported Population Apoptotic (%) for these compounds:
{"columns": ["compound", "endpoint_name", "measured_result"],
 "data": [
  ["C=C1/C(=C\\C=C2/CCC[C@]3(C)[C@@H]([C@H](C)/C=C/[C@H](C)C(C)C)CC[C@@H]23)C[C@@H](O)C[C@@H]1O", "Population Apoptotic (%)", 66],
  ["CN1C2CCC1CC(OC(c1ccc(F)cc1)c1ccc(F)cc1)C2.Cl (stereo not drawn)", "Population Apoptotic (%)", 28],
  ["O=C1NC(=O)C(c2cnc3ccccn23)=C1c1cn2c3c(cc(F)cc13)CN(C(=O)N1CCCCC1)CC2", "Population Apoptotic (%)", 79],
  ["Cc1ccc(C(=O)Nc2cccc(C(F)(F)F)c2)cc1Nc1nc(-c2cccnc2)nc2c1cnn2C", "Population Apoptotic (%)", 42],
  ["CNc1cc(Oc2cc(C(=O)Nc3cc(N4CCN(C)CC4)cc(C(F)(F)F)c3)ccc2C)ncn1", "Population Apoptotic (%)", 84]
]}

# return Population Apoptotic (%) for each item in the list
1. CCOc1cc(C(=O)N2CCC(N3CCN(C)CC3)CC2)ccc1Nc1ncc2c(n1)N(C1CCCC1)c1ccccc1C(=O)N2C
2. CCCn1c(=O)c2[nH]c(-c3cnn(Cc4cccc(C(F)(F)F)c4)c3)nc2n(CC)c1=O
3. CCN1CCN(Cc2ccc(Nc3ncc(F)c(-c4cc(F)c5nc(C)n(C(C)C)c5c4)n3)nc2)CC1.CS(=O)(=O)O

[reply]
78
69
56

###

- System: Fibroblast
- measurement_protocol: Multiplex assay against human fibroblast
- Type: toxicity, cell-based
- test_conditions: 12 h, 1 µM, compound concentration 1 uM, replicate 2
Friendly reminder: Population Hoechst High Intensity Objects (%) below 8% is Fulfilled, at or above is Not fulfilled.

{"columns": ["compound", "classification"],
 "data": [
  ["CN(C)C(=O)C(CCN1CCC(O)(c2ccc(Cl)cc2)CC1)(c1ccccc1)c1ccccc1.Cl [LOPERAMIDE HYDROCHLORIDE]", "Fulfilled"],
  ["S=C(NCCCc1c[nH]cn1)NCCCN(Cc1ccc(Cl)c(Cl)c1)c1ccc(Br)cn1", "Not fulfilled"]
]}

[ask] A record lists `O=C(Nc1ccc(-c2ccnc(Nc3ccc(N4CCOCC4)cc3)n2)cc1)[C@@H]1CCCN1` . Is its Population Hoechst High Intensity Objects (%) below 8%?
[reply] Fulfilled

[ask] // repeat for `COC(=N)c1nc2ccc3ncnc(Nc4ccc(OC)cc4F)c3c2s1` and report
[reply] Not fulfilled

[ask] Record: `Cc1ccc(C(=O)Nc2cccc(C(F)(F)F)c2)cc1Nc1nc(-c2cccnc2)nc2c1cnn2C`
[reply] Fulfilled

###

- Test system: HEK-293T
- measurement_protocol: Multiplex assay against HEK293T
- Type: toxicity, cell-based
- test_conditions: human, 48 h, 1 µM, compound concentration 1 uM, replicate 1
endpoint_name: Population Pyknosed Nuclei (%)
One number for each entry, in %.

Below are worked cases with known answers.
{"columns": ["compound", "target_entity", "endpoint_name", "measured_result"],
 "data": [
  ["Cc1cc(C)c(S(=O)(=O)N(Cc2ccc(-c3cccc(S(C)(=O)=O)c3)cc2)Cc2ccc(C(F)(F)F)o2)c(C)c1", "HEK-293T", "Population Pyknosed Nuclei (%)", 25],
  ["S=C(NCCCc1c[nH]cn1)NCCCN(Cc1ccc(Cl)c(Cl)c1)c1ccc(Br)cn1", "HEK-293T", "Population Pyknosed Nuclei (%)", 75],
  ["CCOc1cc(C(=O)N2CCC(N3CCN(C)CC3)CC2)ccc1Nc1ncc2c(n1)N(C1CCCC1)c1ccccc1C(=O)N2C", "HEK-293T", "Population Pyknosed Nuclei (%)", 46]
]}

Report Population Pyknosed Nuclei (%) for every entry below.
1. O=C(Cc1ccc(-c2ccc(OCCN3CCOCC3)cc2)cn1)NCc1ccccc1 [TIRBANIBULIN]
2. O=C1NC(=O)C(c2cnc3ccccn23)=C1c1cn2c3c(cc(F)cc13)CN(C(=O)N1CCCCC1)CC2 [LY-2090314]
3. C=C1/C(=C\C=C2/CCC[C@]3(C)[C@@H]([C@H](C)/C=C/[C@H](C)C(C)C)CC[C@@H]23)C[C@@H](O)C[C@@H]1O [DOXERCALCIFEROL]
4. CCn1c(=O)c(-c2ccc(-c3cncs3)cc2Cl)cc2cnc(Nc3ccc(N4CCN(C)CC4)cc3)nc21

[reply]
[50, 44, 47, 28]

Provenance of the data: ChEMBL document CHEMBL4689842
